Each recorded value in this set is attributed to patent US20250092014A1.

Give log10(EC50) for every item shown.
# Subject of test: LPL:sGPIHBP1 complex (Homo sapiens)
# Sequence (P06858 28-475): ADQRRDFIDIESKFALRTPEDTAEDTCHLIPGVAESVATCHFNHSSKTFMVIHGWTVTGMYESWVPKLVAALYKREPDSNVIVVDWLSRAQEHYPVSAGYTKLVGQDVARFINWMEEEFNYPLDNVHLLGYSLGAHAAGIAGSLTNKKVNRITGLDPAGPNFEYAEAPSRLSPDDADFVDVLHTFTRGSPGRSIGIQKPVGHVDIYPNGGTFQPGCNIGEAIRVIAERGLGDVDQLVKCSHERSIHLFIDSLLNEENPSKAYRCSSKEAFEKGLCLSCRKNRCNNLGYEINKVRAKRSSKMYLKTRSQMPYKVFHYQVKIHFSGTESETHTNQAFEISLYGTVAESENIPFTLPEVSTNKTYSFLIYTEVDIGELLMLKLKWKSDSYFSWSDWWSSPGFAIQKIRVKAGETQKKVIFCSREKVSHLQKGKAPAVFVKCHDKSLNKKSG
# Sequence (Q8IV16 21-151 partner limits assumed): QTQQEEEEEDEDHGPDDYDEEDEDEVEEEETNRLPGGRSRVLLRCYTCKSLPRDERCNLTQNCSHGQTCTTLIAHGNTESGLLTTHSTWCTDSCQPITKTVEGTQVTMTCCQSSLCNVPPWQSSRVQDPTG
# Procedure details: RB assay (LPL:sGPIHBP1 pre-incubated with ANGPTL4, RB substrate)
# Run parameters: read-out: RB qAC50
Scale: decimal log of EC50, EC50 in µM.

Guide cases for log10(EC50), answers given:
1) O=C(O)Cc1cc(C(F)(F)F)ccc1NC(=O)c1ccc(N2CCCCC2)c(NC(=O)c2nn(CC(F)(F)F)c3ccccc23)c1 [Example 22]    0.63
2) O=C(O)Cc1cc(F)ccc1NC(=O)c1ccc(N2C3CCC2CC3)c(NC(=O)c2nn(CC(F)(F)F)c3ccccc23)c1 [Example 54]    0.84
3) O=C(O)Cc1cc(F)ccc1NC(=O)c1ccc(N2CCCCC2)c(NC(=O)c2nn(CC3CC3)c3ccccc23)c1 [Compound 94]    0.77

For every record below, what is its log10(EC50)?
1. O=C(O)Cc1cc(F)ccc1NC(=O)c1ccc(N2CCCCC2)c(NC(=O)c2cc(-c3ccccc3)nn2CC(F)(F)F)c1 [Compound 134]
2. O=C(O)Cc1cc(F)ccc1NC(=O)c1ccc(N2CCCCC2)c(NC(=O)c2cn(CC(F)(F)F)c3ccccc23)c1 [Compound 128]
3. O=C(O)Cc1cc(F)ccc1NC(=O)c1ccc(N2CCC(F)(F)CC2)c(NC(=O)c2nn(CC(F)(F)F)c3ccccc23)c1 [Example 40]
4. O=C(O)Cc1ccc(F)cc1NC(=O)c1ccc(N2CCCCC2)c(NC(=O)c2nn(CC(F)(F)F)c3ccccc23)c1 [Compound 38]
5. O=C(O)Cc1cc(F)ccc1NC(=O)c1ccc(N2CCCCC2)c(NC(=O)c2nn(CC3CCCOC3)c3ccccc23)c1 (stereo not drawn) [Compound 133]

[0.64, -0.18, 0.54, 0.56, 0.62]

For every record below, what is its log10(EC50)?
1. CCC(C(=O)O)c1cc(F)ccc1NC(=O)c1ccc(N2CCCCC2)c(NC(=O)c2nn(CC(F)(F)F)c3ccccc23)c1 (stereo not drawn) [Example 28]
2. O=C(O)Cc1cc(F)ccc1NC(=O)c1ccc(N2CCOCC2)c(NC(=O)c2nn(CC(F)(F)F)c3ccccc23)c1 [Example 56]

[0.62, 1.18]

----------
# Subject of test: LPL:sGPIHBPI complex (Homo sapiens)
# Sequence (P06858 28-475): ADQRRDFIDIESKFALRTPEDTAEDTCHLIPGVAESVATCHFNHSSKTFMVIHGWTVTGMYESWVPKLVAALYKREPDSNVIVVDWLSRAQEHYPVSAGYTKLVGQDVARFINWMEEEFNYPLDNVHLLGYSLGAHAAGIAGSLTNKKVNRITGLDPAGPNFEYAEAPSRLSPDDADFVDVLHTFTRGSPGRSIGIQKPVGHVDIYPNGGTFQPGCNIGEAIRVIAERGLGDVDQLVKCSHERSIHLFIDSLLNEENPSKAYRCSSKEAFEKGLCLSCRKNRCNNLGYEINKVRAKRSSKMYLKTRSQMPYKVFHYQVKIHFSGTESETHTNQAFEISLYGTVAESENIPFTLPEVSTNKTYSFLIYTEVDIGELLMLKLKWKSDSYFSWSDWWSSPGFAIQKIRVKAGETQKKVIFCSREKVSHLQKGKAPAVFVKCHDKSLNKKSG
# Sequence (Q8IV16 21-151 partner limits assumed): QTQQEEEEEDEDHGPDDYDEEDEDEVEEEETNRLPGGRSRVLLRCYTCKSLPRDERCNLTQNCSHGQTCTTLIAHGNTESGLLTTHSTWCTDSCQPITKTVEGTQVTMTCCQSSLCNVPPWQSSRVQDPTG
# Procedure details: VLDL assay (LPL:sGPIHBP1 pre-incubated with ANGPTL4, VLDL substrate, Amplex Red readout)
# Run parameters: read-out: VLDL qAC50
Consider the cut-off 3 µM. If the recorded EC50 is strictly smaller, the label is Satisfied; if not, the label is Not satisfied.

Solved entries (count: 6):
1) O=C(O)Cc1cc(F)ccc1NC(=O)c1ccc(N2CCCCC2)c(NC(=O)c2nn(CC(F)(F)F)c3ccccc23)n1    Not satisfied
2) CC1CCCCN1c1ccc(C(=O)Nc2ccc(F)cc2CC(=O)O)cc1NC(=O)c1nn(CC(F)(F)F)c2ccccc12 (stereo not drawn)    Satisfied
3) CC1CCCN(c2ccc(C(=O)Nc3ccc(F)cc3CC(=O)O)cc2NC(=O)c2nn(CC(F)(F)F)c3ccccc23)C1 (stereo not drawn)    Satisfied
4) O=C(O)Cc1cc(F)ccc1NC(=O)c1ccc(N2CCCCC2)c(NS(=O)(=O)c2nn(CC(F)(F)F)c3ccccc23)c1    Not satisfied
5) O=C(O)Cc1cc(F)ccc1NC(=O)c1ccc(N2CCCCC2)c(NC(=O)c2nn(CC3COCCO3)c3ccccc23)c1 (stereo not drawn)    Not satisfied
6) O=C(O)Cc1cccc(Cl)c1NC(=O)c1ccc(N2CCCCC2)c(NC(=O)c2nn(CC(F)(F)F)c3ccccc23)c1    Not satisfied

Determine if CCC1CCCCN1c1ccc(C(=O)Nc2ccc(F)cc2CC(=O)O)cc1NC(=O)c1nn(CC(F)(F)F)c2ccccc12 (stereo not drawn) shows EC50 strictly lower than 3 µM.
Satisfied

Determine if `O=C(O)Cc1cc(F)ccc1NC(=O)c1ccc(N2CCCOCC2)c(NC(=O)c2nn(CC(F)(F)F)c3ccccc23)c1` shows EC50 strictly lower than 3 µM.
Not satisfied

Determine if `O=C(O)Cc1cc(F)ccc1NC(=O)c1ccc(N2CCCCC2)c(NC(=O)c2nn(CCN3CCOCC3)c3ccccc23)c1` shows EC50 strictly lower than 3 µM.
Not satisfied

Determine if `CC1CCN(c2ccc(C(=O)Nc3ccc(F)cc3CC(=O)O)cc2NC(=O)c2nn(CC(F)(F)F)c3ccccc23)CC1` shows EC50 strictly lower than 3 µM.
Satisfied

Determine if `Cc1nc(Cn2nc(C(=O)Nc3cc(C(=O)Nc4ccc(F)cc4CC(=O)O)ccc3N3CCCCC3)c3ccccc32)no1` shows EC50 strictly lower than 3 µM.
Not satisfied

Determine if `O=C(O)Cc1cc(F)ccc1NC(=O)c1ccc(N2CCCCC2)c(NC(=O)Nc2nn(CC(F)(F)F)c3ccccc23)c1` shows EC50 strictly lower than 3 µM.
Not satisfied

----------
Give EC50 for every item shown.
# Subject of test: LPL:sGPIHBP1 complex (Homo sapiens)
# Procedure details: RB assay (LPL:sGPIHBP1 pre-incubated with ANGPTL4, RB substrate)
# Run parameters: read-out: RB qAC50

1. O=C(O)Cc1cc(F)ccc1NC(=O)c1ccc(N2CCCCC2)c(NC(=O)c2cn3ccccc3n2)c1    > 25 µM

For every record below, what is its EC50?
1. O=C(O)Cc1cc(F)ccc1NC(=O)c1ccc(N2CCCC(F)(F)C2)c(NC(=O)c2nn(CC(F)(F)F)c3ccccc23)c1
2. O=C(O)Cc1cc(F)ccc1NC(=O)c1ccc(N2CCCCC2)c(NC(=O)c2nn(CC3CCNCC3)c3ccccc23)c1
3. COC1CCN(c2ccc(C(=O)Nc3ccc(F)cc3CC(=O)O)cc2NC(=O)c2nn(CC(F)(F)F)c3ccccc23)CC1
4. O=C(O)Cc1cc(F)ccc1NC(=O)c1ccc(N2CCCCC2=O)c(NC(=O)c2nn(CC(F)(F)F)c3ccccc23)c1
5. O=C(O)Cc1cc(F)ccc1NC(=O)c1ccc(N2CCCCC2)c(NC(=O)c2nn(CC(F)(F)F)c3ccncc23)c1

1: > 7.1 µM; 2: > 25 µM; 3: > 7.1 µM; 4: > 25 µM; 5: > 7.1 µM

----------
# Subject of test: LPL:sGPIHBP1 complex (Homo sapiens, UniProt P06858)
# Procedure details: RB assay (LPL:sGPIHBP1 pre-incubated with ANGPTL4, RB substrate)
# Run parameters: read-out: RB qAC50
pEC50: −log10 of the molar value.
Measured property: pEC50

1. CC(C1CCOCC1)n1nc(C(=O)Nc2cc(C(=O)Nc3ccc(F)cc3CC(=O)O)ccc2N2CCCCC2)c2ccccc21 (stereo not shown)    < 4.60
2. O=C(O)Cc1cc(F)ccc1NC(=O)c1ccc(N2CCOC2=O)c(NC(=O)c2nn(CC(F)(F)F)c3ccccc23)c1    < 4.60
3. CN1CCN(c2ccc(C(=O)Nc3ccc(F)cc3CC(=O)O)cc2NC(=O)c2nn(CC(F)(F)F)c3ccccc23)CC1    < 5.15
4. Cc1ccc2c(c1)c(C(=O)Nc1cc(C(=O)Nc3ccc(F)cc3CC(=O)O)ccc1N1CCCCC1)nn2CC(F)(F)F    < 5.15
5. Cc1c(C(=O)Nc2cc(C(=O)Nc3ccc(F)cc3CC(=O)O)ccc2N2CCCCC2)c2ccccc2n1CC(F)(F)F    < 4.60
6. O=C(O)Cc1cc(F)ccc1NC(=O)c1ccc(N2CCC2)c(NC(=O)c2nn(CC(F)(F)F)c3ccccc23)c1    < 4.60

Consider the additional molecule presented here.
pEC50 for `O=C(O)Cc1cc(F)ccc1NC(=O)c1ccc(N2CCCCC2)c(NC(=O)c2nn(CCO)c3ccccc23)c1` is < 4.60
